This section presents compounds with their documented CC50 at 14 days values.
Test: Cytotoxicity in HepG2.2.15 cells
Type: cell-based
Details: human

Study these solved cases before continuing.
Compound	Result
N#C[C@]1(CO)/C(=C\F)[C@@H](n2cnc3c(=O)[nH]c(N)nc32)C[C@@H]1O [Compound (E)-6]	93 µM
N#C[C@]1(CO)/C(=C/F)[C@@H](n2cnc3c(=O)[nH]c(N)nc32)C[C@@H]1O [(Z)-6]	> 100 µM
C=C1[C@H](CO)[C@@H](O)C[C@@H]1n1cnc2c(=O)[nH]c(N)nc21 [Compound 1, entecavir, reference compound]	63 µM

Quick one: give measured CC50 at 14 days for N#C[C@]1(CO)O[C@@H](n2cnc3c(=O)[nH]c(N)nc32)C[C@@H]1O [Compound 2, 4′-cyano-deoxyguanosine, reference compound] 3 µM

Reference source for all entries: paper PMC10230191
